Tested on: RPMI-8226 leukemia
Test: NCI-60 one-dose screen, 48 h (100 = growth as untreated, 0 = no growth, -100 = all killed)
Settings: 10 µM unless noted
About 83,000 compounds went through this panel and 20% of them were active in at least one assay; those are over-represented in the sample as a whole.
Output Fulfilled for growth not less than 20%; output Not fulfilled otherwise.

See these solved cases before continuing.
C=CCOc1ccc(/C(O)=C2\C(=O)C(=O)N(c3nccs3)C2c2ccccc2F)cc1 (stereo unspecified)
Fulfilled
CN(C)c1ccc(C2CC(c3ccccc3)=NN2/C=C2\SC(=O)NC2=O)cc1 (stereo unspecified)
Fulfilled
COc1ccc(OC)c(NC(=O)c2cc(S(=O)(=O)N3CCc4ccccc43)ccc2OC)c1
Fulfilled
Clc1nc2ccccc2nc1CI
Fulfilled
Nc1ccccc1C#C/C=C\C#Cc1cccc(O)c1
Fulfilled

Moving on to the next molecule.
Incoming: Decide: is the reported value of growth for CC/C=C\C[C@H](O)C/C=C1/C(=O)C(Cl)=C[C@@H]1C/C=C\CCCC(=O)O equal to or greater than 20%?
Outgoing: Not fulfilled

----------
Tested on: EKVX NSCLC
Experiment: NCI-60 one-dose screen, 48 h (100 = growth as untreated, 0 = no growth, -100 = all killed)
Details: 10 µM unless noted
About 83,000 compounds went through this panel and 20% of them were active in at least one assay; those are over-represented in the sample as a whole.
# class assignment by measured growth: lower range (below 70%), middle range (70% to below 90%), upper range (90% or more)

COc1ccc2c(c1)NC(=O)CN2c1nc(C)nc2ccccc12
lower range
O=C(/C=C/CN1CCOCC1)Nc1cc2c(Nc3cccc(Cl)c3F)ncnc2cc1OCCOC(F)F
lower range
CCCCC[C@@H]1Cc2cc(O)c(C(=O)O)c3c2[C@H](C[C@@]2(CCCO2)O3)O1
upper range
O=S(=O)(NCCCNc1cc(-c2cn(-c3ccccc3)nc2-c2cccc(O)c2)ccn1)c1ccc(C(F)(F)F)cc1
lower range
Nc1cccc2c1CN(C1CCC(=O)NC1=O)C2=O (centres undefined)
upper range

Incoming: Which category does the recorded growth put COc1ccc(C(=O)N2CCN(C(=O)c3cc(OC)c(OC)c(OC)c3)CC2)cc1OCCCCOc1cc2c(cc1OC)C(=O)N1CCC[C@H]1C=N2 in?
Outgoing: upper range

Incoming: Looking at CCN1C(=O)/C(=c2\sc3n(c2=O)C2C(NN=3)N(CC)C(=S)N2CC)c2ccccc21 (centres undefined) , which class would you pick?
Outgoing: upper range

----------
Test system: NCI-H522 lung
Assay: NCI-60 one-dose screen, 48 h
Conditions: 10 µM unless noted
About 83,000 compounds went through this panel and 20% of them were active in at least one assay; those are over-represented in the sample as a whole. Calls of active or inactive are those of the source. The calls were made as follows: active = growth percent below 10; inactive = the rest.
Use one of these outcomes when replying: active, inactive

# example entries with known answers
COc1ccc(NC(=S)/N=c2\oc3c(OC)cccc3cc2-c2cc3ccccc3[nH]2)cc1
inactive
CC1=CNNc2c3ncnc-3ncn21
inactive
Oc1ccc(Cl)cc1-c1cc(-c2ccc(Cl)cc2)n[nH]1
inactive
COc1ccc(NC(=O)c2cc3ccccc3nc2Nc2cc(OC)c(OC)c(OC)c2)cc1
inactive

Now for a further compound.
Incoming: In this assay, the call recorded for O=C(O)C(Cc1ccccc1)N1C(=O)/C(=C/C(Cl)=C/c2ccc([N+](=O)[O-])cc2)SC1=S (stereo not given) was what?
Outgoing: active

Attribution: PubChem BioAssay (NCI)
